Target chain: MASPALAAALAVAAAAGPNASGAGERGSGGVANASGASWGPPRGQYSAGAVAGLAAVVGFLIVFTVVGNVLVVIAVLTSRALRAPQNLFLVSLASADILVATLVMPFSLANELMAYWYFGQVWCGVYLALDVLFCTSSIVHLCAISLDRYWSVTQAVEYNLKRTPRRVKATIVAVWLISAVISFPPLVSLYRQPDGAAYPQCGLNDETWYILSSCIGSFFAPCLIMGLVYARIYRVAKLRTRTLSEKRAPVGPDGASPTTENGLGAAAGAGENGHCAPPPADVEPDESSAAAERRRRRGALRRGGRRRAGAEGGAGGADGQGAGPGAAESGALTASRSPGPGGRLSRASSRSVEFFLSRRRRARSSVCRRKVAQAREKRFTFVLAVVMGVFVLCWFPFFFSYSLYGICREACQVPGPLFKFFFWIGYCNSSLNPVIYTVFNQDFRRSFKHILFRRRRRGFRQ
pIC50: −log10 of the molar value.

| molecule | pIC50 |
| --- | --- |
| COc1ccc(N2C(=O)CCc3cc(OC4CCN(C5CCC5)CC4)ccc32)cc1 | 6.28 |
